Record form. Attribute: IC50. Fill in for each entry.
Target: Tyrosine-protein kinase receptor UFO (Homo sapiens)
Sequence (P30530 whole entry): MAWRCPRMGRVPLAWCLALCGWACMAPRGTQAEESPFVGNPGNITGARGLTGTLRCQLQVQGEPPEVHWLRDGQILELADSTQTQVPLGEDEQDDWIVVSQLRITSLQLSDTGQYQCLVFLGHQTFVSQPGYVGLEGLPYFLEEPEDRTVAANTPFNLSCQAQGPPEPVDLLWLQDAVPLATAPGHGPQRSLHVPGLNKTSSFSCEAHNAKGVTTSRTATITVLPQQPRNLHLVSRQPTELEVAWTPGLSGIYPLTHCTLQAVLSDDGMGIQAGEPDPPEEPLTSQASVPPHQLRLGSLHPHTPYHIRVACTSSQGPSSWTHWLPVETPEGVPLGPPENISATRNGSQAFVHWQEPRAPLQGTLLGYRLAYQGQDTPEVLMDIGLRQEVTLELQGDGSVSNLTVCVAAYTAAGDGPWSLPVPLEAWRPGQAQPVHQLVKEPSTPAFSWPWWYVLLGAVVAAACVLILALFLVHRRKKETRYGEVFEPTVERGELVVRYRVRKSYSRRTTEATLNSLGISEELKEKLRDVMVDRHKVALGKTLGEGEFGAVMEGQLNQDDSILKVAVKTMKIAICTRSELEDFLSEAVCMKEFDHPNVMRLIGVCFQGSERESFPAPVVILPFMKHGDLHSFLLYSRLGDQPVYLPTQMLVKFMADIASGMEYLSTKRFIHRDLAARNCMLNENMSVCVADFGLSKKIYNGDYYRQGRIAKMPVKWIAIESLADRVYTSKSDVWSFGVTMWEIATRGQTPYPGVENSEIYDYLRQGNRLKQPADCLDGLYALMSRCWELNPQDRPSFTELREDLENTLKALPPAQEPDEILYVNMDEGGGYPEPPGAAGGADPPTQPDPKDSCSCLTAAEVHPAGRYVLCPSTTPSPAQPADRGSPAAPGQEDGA

CNc1ncc2c(C(C)C)nn(CC3CCNCC3)c2n1 ... > 30 µM

Turning now to a further compound:
IC50 reported for this compound "CNc1ncc2c(C(C)C)nn(C[C@@H]3CCCN3)c2n1" : > 30 µM

* * *

target: Tyrosine-protein kinase receptor TYRO3 (Homo sapiens, UniProt Q06418)
Sequence (Q06418 whole entry): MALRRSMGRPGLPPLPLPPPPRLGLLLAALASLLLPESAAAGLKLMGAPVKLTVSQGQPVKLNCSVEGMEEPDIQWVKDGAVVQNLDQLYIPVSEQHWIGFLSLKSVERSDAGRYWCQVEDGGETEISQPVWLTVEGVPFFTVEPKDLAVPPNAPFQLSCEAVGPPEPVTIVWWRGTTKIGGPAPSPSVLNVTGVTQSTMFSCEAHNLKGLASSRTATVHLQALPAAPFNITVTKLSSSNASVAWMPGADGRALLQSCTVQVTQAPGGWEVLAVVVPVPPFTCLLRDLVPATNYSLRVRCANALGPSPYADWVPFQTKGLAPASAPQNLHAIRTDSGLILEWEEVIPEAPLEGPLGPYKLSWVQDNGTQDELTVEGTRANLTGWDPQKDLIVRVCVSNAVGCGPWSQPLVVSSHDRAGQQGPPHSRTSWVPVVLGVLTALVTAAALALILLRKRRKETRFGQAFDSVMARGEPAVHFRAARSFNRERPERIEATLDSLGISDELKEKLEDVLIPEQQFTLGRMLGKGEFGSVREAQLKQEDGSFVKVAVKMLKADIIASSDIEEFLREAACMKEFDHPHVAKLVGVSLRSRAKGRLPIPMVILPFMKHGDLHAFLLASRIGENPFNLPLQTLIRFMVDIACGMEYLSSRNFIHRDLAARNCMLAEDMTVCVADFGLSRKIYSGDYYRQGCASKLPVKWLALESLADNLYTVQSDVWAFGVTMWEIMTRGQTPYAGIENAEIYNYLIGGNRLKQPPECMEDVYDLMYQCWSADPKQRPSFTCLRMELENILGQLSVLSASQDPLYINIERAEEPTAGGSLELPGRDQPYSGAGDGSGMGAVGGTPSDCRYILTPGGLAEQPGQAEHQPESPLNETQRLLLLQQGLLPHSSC
pIC50: −log10 of the molar value.
parameter: pIC50

response.value for "CNc1ncc2c(C(C)C)nn(CC3CCNCC3)c2n1" (field: pIC50) = < 4.52
